Subject of test: HDAC6 enzyme (Homo sapiens, UniProt Q9UBN7)
Construct: transducing full length HDAC1 and HDAC6 genes into Sf-9 insect cells; GST; purchased SignalChem; host or cells: Sf-9 insect cells
Sequence (Q9UBN7 1-1215): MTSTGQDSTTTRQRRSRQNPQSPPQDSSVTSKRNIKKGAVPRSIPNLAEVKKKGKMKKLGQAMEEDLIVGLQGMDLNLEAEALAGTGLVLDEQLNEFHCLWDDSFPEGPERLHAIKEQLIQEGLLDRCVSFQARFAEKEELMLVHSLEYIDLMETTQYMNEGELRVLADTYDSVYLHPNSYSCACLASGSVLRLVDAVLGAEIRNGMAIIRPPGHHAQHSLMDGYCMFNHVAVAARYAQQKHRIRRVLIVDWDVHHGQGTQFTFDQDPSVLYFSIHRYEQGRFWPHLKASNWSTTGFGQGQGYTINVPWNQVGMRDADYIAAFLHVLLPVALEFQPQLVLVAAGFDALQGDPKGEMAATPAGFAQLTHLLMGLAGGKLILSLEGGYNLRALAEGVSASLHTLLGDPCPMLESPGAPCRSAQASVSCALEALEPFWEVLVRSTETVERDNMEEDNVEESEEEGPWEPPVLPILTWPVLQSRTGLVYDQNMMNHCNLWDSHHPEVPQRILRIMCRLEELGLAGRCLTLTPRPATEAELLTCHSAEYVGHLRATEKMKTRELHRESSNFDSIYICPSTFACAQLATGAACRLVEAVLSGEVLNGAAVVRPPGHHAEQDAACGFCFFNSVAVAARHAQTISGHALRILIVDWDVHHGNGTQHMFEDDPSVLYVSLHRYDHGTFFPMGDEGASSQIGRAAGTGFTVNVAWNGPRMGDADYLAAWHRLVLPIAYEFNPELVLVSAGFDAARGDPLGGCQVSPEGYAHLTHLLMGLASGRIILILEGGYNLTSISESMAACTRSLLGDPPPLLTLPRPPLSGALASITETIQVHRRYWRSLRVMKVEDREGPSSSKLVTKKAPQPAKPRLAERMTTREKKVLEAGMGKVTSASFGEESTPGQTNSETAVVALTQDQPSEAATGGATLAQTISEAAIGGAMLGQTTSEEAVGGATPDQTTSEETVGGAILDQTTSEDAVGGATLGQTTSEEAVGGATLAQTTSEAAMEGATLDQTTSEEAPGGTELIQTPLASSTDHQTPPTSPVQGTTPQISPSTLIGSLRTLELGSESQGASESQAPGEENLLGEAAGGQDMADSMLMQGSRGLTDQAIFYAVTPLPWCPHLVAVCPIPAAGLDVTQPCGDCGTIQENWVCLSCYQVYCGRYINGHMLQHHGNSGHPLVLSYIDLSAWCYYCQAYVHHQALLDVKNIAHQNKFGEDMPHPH
Test method notes: HDAC1/6 Enzyme Inhibitory Assay (HDAC-Glo I/II Assay kit), HDAC6
Format: biochemical
Experimental context: 1 μM test compound; wells without enzyme = 100% inhibition; read-out: HDAC6 inhibitory rate (%) (1 μM)
Endpoint label: inhibition at 1 µM (%)

Take a look at these entries with their results.
# Compound, Endpoint value
records = [
    ("CC(C)(C)OC(=O)N[C@H]1CCCC[C@H]1N1Cc2ccc(-c3noc(C(F)(F)F)n3)cc2C1=O", 98),
    ("O=C(N[C@H]1CCCC[C@@H]1N1Cc2ccc(-c3noc(C(F)(F)F)n3)cc2C1=O)C1CC1", 83),
    ("O=C(N[C@@H]1COCC[C@H]1N1Cc2ccc(-c3noc(C(F)(F)F)n3)cc2C1=O)[C@H]1CC1(F)F", 100),
    ("O=C1CCCN1[C@@H]1CCCC[C@H]1N1Cc2ccc(-c3noc(C(F)(F)F)n3)cc2C1=O [Example 191]", 99),
    ("O=C(N[C@@H]1CCCC[C@H]1N1Cc2ccc(-c3noc(C(F)(F)F)n3)cc2C1=O)N1CC2CC(C1)O2", 97),
]

(a) O=C(N[C@@H]1CCCC[C@H]1N1Cc2ccc(-c3noc(C(F)(F)F)n3)cc2C1=O)C1CCOCC1
(b) CC(C)(C)OC(=O)N1CC[C@@H](c2ccccc2)[C@H](N2Cc3cc(-c4noc(C(F)(F)F)n4)ccc3C2=O)C1 (relative stereo)
// query Please indicate which has the smaller reported inhibition at 1 µM: a , or b . Answer by stating the label of the chosen item.
// result b
(b: 36%, a: 96%)
